Test system: 266295-075-R-J1-PDC spheroid viability;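 also: spheroids exposed to compounds for seven days before readout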
experiment notes: Anticancer human tumor 266295-075-R-J1-PDC patient-derived head and neck squamous carcinoma cell line growth inhibition [POLQ]
test parameters: second compound 0.1 µM; first compound 1 µM; active compounds read low; spheroids with HUVEC and MSC
reported metric: viability, T/C (%)
Answers are plain numbers, in %.

Batch request: viability, T/C per item, same order as input.
1. O=C(c1cc(Cc2n[nH]c(=O)c3ccccc23)ccc1F)N1CCN(C(=O)C2CC2)CC1 + COC1C(OC(N)=O)C(O)C(Oc2ccc3c(O)c(NC(=O)c4ccc(O)c(CC=C(C)C)c4)c(=O)oc3c2C)OC1(C)C
2. Nc1ccn(C2OC(CO)C(O)C2(F)F)c(=O)n1 (stereo not given) + Cc1cccc(N(C)C(=O)C2C(O)CCN2c2nc(C)cc(C(F)(F)F)c2C#N)c1
3. CNCc1ccc(-c2[nH]c3cc(F)cc4c3c2CCNC4=O)cc1 + Nc1ccc(C#CCN(C(=O)Cc2ncc(C(F)(F)F)cc2C(F)(F)F)c2ccc(F)cc2)nn1
4. C=CCn1c(=O)c2cnc(Nc3ccc(N4CCN(C)CC4)cc3)nc2n1-c1cccc(C(C)(C)O)n1 + Cc1cccc(N(C)C(=O)C2C(O)CCN2c2nc(C)cc(C(F)(F)F)c2C#N)c1
5. O=C(Nc1ccc(O)c(NS(=O)(=O)c2ccc(F)cc2)c1)c1ccc(-c2ccccc2)cc1 + COC1C(OC(N)=O)C(O)C(Oc2ccc3c(O)c(NC(=O)c4ccc(O)c(CC=C(C)C)c4)c(=O)oc3c2C)OC1(C)C
6. COc1cccc2c1C(=O)c1c(O)c3c(c(O)c1C2=O)CC(O)(C(=O)CO)CC3OC1CC(N)C(O)C(C)O1 (stereo not given) + Cc1cccc(N(C)C(=O)C2C(O)CCN2c2nc(C)cc(C(F)(F)F)c2C#N)c1
7. O=C(Nc1ccc(O)c(NS(=O)(=O)c2ccc(F)cc2)c1)c1ccc(-c2ccccc2)cc1 + Cc1cccc(N(C)C(=O)C2C(O)CCN2c2nc(C)cc(C(F)(F)F)c2C#N)c1
8. CC1COCCN1c1cc(-c2ccnn2C)c2ccnc(-c3ccn[nH]3)c2n1 (stereo not given) + Cc1cccc(N(C)C(=O)C2C(O)CCN2c2nc(C)cc(C(F)(F)F)c2C#N)c1

93.7
76
83.2
63
112
60.2
110
52.6

Look at each compound and report its viability, T/C.
1. CC1COCCN1c1cc(C2(S(C)(=N)=O)CC2)nc(-c2ccnc3[nH]ccc23)n1 (stereo not given) + Cc1cccc(N(C)C(=O)C2C(O)CCN2c2nc(C)cc(C(F)(F)F)c2C#N)c1
2. C=CCn1c(=O)c2cnc(Nc3ccc(N4CCN(C)CC4)cc3)nc2n1-c1cccc(C(C)(C)O)n1 + Nc1ccc(C#CCN(C(=O)Cc2ncc(C(F)(F)F)cc2C(F)(F)F)c2ccc(F)cc2)nn1
3. CC1COCCN1c1cc(C2(S(C)(=N)=O)CC2)nc(-c2ccnc3[nH]ccc23)n1 (stereo not given) + COC1C(OC(N)=O)C(O)C(Oc2ccc3c(O)c(NC(=O)c4ccc(O)c(CC=C(C)C)c4)c(=O)oc3c2C)OC1(C)C

1. 86.8
2. 68.8
3. 87.9

Items follow; give viability, T/C for each.
1. COc1cccc2c1C(=O)c1c(O)c3c(c(O)c1C2=O)CC(O)(C(=O)CO)CC3OC1CC(N)C(O)C(C)O1 (stereo not given) + COC1C(OC(N)=O)C(O)C(Oc2ccc3c(O)c(NC(=O)c4ccc(O)c(CC=C(C)C)c4)c(=O)oc3c2C)OC1(C)C
2. CCc1c2c(nc3ccc(O)cc13)-c1cc3c(c(=O)n1C2)COC(=O)[C@]3(O)CC + COC1C(OC(N)=O)C(O)C(Oc2ccc3c(O)c(NC(=O)c4ccc(O)c(CC=C(C)C)c4)c(=O)oc3c2C)OC1(C)C
3. CC1COCCN1c1cc(C2(S(C)(=N)=O)CC2)nc(-c2ccnc3[nH]ccc23)n1 (stereo not given) + Nc1ccc(C#CCN(C(=O)Cc2ncc(C(F)(F)F)cc2C(F)(F)F)c2ccc(F)cc2)nn1
4. CCCS(=O)(=O)Nc1ccc(F)c(C(=O)c2c[nH]c3ncc(-c4ccc(Cl)cc4)cc23)c1F + COC1C(OC(N)=O)C(O)C(Oc2ccc3c(O)c(NC(=O)c4ccc(O)c(CC=C(C)C)c4)c(=O)oc3c2C)OC1(C)C
5. CC1COCCN1c1cc(-c2ccnn2C)c2ccnc(-c3ccn[nH]3)c2n1 (stereo not given) + Nc1ccc(C#CCN(C(=O)Cc2ncc(C(F)(F)F)cc2C(F)(F)F)c2ccc(F)cc2)nn1
6. C#Cc1c(F)ccc2cc(O)cc(-c3ncc4c(N5CC6CCC(C5)N6)nc(OCC56CCCN5CC(F)C6)nc4c3F)c12 (stereo not given) + COC1C(OC(N)=O)C(O)C(Oc2ccc3c(O)c(NC(=O)c4ccc(O)c(CC=C(C)C)c4)c(=O)oc3c2C)OC1(C)C
7. COc1ccc([C@@H](O)c2cc(-c3ncnc4cc(N5CCOCC5)ccc34)c(F)cc2Cl)nn1 + Cc1cccc(N(C)C(=O)C2C(O)CCN2c2nc(C)cc(C(F)(F)F)c2C#N)c1

74.7
79.3
93.9
112
57.5
60.1
71

Kindly give each listed record's viability, T/C.
1. CC1COCCN1c1cc(-c2ccnn2C)c2ccnc(-c3ccn[nH]3)c2n1 (stereo not given) + COC1C(OC(N)=O)C(O)C(Oc2ccc3c(O)c(NC(=O)c4ccc(O)c(CC=C(C)C)c4)c(=O)oc3c2C)OC1(C)C
2. C=CC(=O)N1CCN(c2nc(=O)n(-c3c(C)ccnc3C(C)C)c3nc(-c4c(O)cccc4F)c(F)cc23)C(C)C1 (stereo not given) + COC1C(OC(N)=O)C(O)C(Oc2ccc3c(O)c(NC(=O)c4ccc(O)c(CC=C(C)C)c4)c(=O)oc3c2C)OC1(C)C

[58, 104]

Recorded values, source PubChem BioAssay AID1963853.
